Measured IC50, HEK293 ST2 NFkB by item
Biological target: T1, cynomolgus monkey IL-33 (cys mut) (cynomolgus monkey)
T1 chain: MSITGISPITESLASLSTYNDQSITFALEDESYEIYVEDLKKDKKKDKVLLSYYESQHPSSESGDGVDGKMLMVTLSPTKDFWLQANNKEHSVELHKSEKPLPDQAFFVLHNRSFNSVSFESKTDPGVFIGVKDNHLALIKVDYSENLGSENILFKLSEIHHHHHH
Assay: cell-based or functional assay

| Binder | IC50, HEK293 ST2 NFkB / nM |
| --- | --- |
| rat 30B11 (30B11 hybridoma) (antibody, V domains shown) VH: QVKLLQSGAALVKPGASVKMSCATSGFSFTDYWVSWVKQSHGKGLEWIGEIYPNSGADNFNENFKGKATLTVDKSTSTAYMELSRLTSEDSAIYYCTRGPYYYSTQIIFAYWGQGTLVTVSS VL: NIVMTQSPKSMSISVGDRVTMNCKASQNVGNNLAWYQQKPGQSPKLLIYYASNRYTGVPDRFTGGGYGTDFTLTINSVQAEDAAFYYCQRIYNSPPTFGGGTKVELR | 0.084 |
| rat 9B3 (9B3 hybridoma) (antibody, V domains shown) VH: EVQLVETGGGLVQPGRSLKLSCVASGFTFSNYWMYWIRQAPGMGLEWVSSINNDGGNTYYLDSVKGRFTISRNNAENTVYLQMNSLRSEDTATYYCAKGHYSYSSYSFSYWGQGTLVTVSS VL: DIQMTQSPSVLSASVGDRVTLSCKASHNINKHLDWCQQKVGEAPKLLIYFTNNLQTGIPSRFSGSGSGTDYTLTISSLQPEDVATYFCFQYNSGWTFGGGTKLELK | 2.72 |
| rat 7E8 (7E8 hybridoma) (antibody, V domains shown) VH: EVQLVETGGGLVQPGRSLKLSCKTSGFTFSSYWMYWIRQAPGKGLEWVSSITPNGGNTYYPDSVKGRFTISRDNAENTIYLQMSSLRSEDTATYFCAKGHYYYTSYSLGYWGQGSLVTVSS VL: EIQMTQSPSVLSASVGDRVTLSCKASQNINKHLDWYQQKLGEAPKLLIYFTNNLQTGIPSRFSGSGSGTDCTLTINSLQPGDVATYFCFQYNNGWTFGGGTKLELD | 0.032 |
| rat 30A1 (30A1 hybridoma) (antibody, V domains shown) VH: QVNLLQSGATLVKPGASMKMSCKASGYSFTDYWVSWVKQSHGKSLEWIGEIYPNSGANNFNKEFKDKATLTVDKSTSTAYMELTRLTSEDSAVYYCTRGPYYYSSQIIFAYWGQGTLVTVSS VL: IIVMTQSPKSMSISVGDRVTMNCKASQNVGNNIAWYRQKPGQSPELLIYYASNRYTGVPDRFTGGGYGTDFTLTINSVQAEDAAFYYCQRIYNSPPTFGGGTKVELK | 0.14 |
